assay: off-target signal loss in HeLa-CEM21 co-culture – HeLa F-luc CTL cells, cherry-picked, counter-screen for HIV-1 Env fusion inhibitor project, dose response (AID 652040); assay type: functional, cell-based;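 note: potency for signal decrease marking cytotoxic or nonspecific inhibition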
Activity calls are given as the source filed them. Cut-off read from the data, not from the text of the source: actives have a measured AC50 and inactives only a lower limit.
endpoint label: AC50

The value of AC50 measured for the compound CC(C)(COC(=O)C(c1ccccc1)c1ccccc1)CN1CCOCC1 turned out to be 4.01 µM (active)

The value of AC50 measured for the compound CCOc1ccc(OCc2cccc(C(=O)N/N=C/c3cccnc3)c2)cc1 turned out to be 1.46 µM (active)

The value of AC50 measured for the compound CCCOc1ccc2ccccc2c1/C=N/n1cnnc1 turned out to be 25.6 µM (active)

Proceeding to the next compound to report its AC50.
The value of AC50 measured for the compound CC(C)C[C@@H](CN(C)N=O)N(C[C@H](Cc1ccccc1)N(CCc1ccccc1)N=O)N=O turned out to be 7.74 µM (active)

Data provenance is ChEMBL document CHEMBL1201862.
